test: Solubility of leflunomide in vehicles (POLYSORBATE 80:alcohol ratios, alcohol, VPD/PBTE); format: physicochemical; details: VPD (PBTE) parenteral vehicle, organic solvent or mixture; VPD (126 mg alcohol, 40 mg POLYSORBATE 80, 3 mg citric acid, 15 mg benzyl alcohol, 325 mg PEG MW300; also PBTE); read-out: solubility in VPD
Quantity: Solubility

What measured Solubility goes with Cc1oncc1C(=O)Nc1ccc(C(F)(F)F)cc1 [Leflunomide] ? ~60 mg/mL

###

Experiment: Ability of leflunomide solutions to be diluted with aqueous solutions
Type: physicochemical
Conditions: POLYSORBATE 80:alcohol vehicle 66%T:33%E, organic solvent or mixture; in 66%T:33%E; read-out: concentration soluble and allowing dilution with aqueous solutions
Protocol: Leflunomide has a low solubility in standard formulations used to dissolve compounds for parenteral administration. For example, the solubility of leflunomide in VPD (126 mg alcohol, 40 mg POLYSORBATE 80®, 3 mg citric acid, 15 mg benzyl alcohol, and 325 mg PEG MW300; also referred to as PBTE) is about 60 mg/ml. Parenterally administered VPD formulations should be diluted at least 1:2 with a pharmaceutically acceptable aqueous solution to avoid toxic effects. […]
Quantity: Solubility (mg/mL)
The reply should contain only the number, in mg/mL.

What measured Solubility goes with Cc1oncc1C(=O)Nc1ccc(C(F)(F)F)cc1 [Leflunomide] ? 50
